Entry source: ChEMBL document CHEMBL4477267

Target: Nuclear receptor ROR-gamma (Homo sapiens)
Sequence (P51449 whole entry): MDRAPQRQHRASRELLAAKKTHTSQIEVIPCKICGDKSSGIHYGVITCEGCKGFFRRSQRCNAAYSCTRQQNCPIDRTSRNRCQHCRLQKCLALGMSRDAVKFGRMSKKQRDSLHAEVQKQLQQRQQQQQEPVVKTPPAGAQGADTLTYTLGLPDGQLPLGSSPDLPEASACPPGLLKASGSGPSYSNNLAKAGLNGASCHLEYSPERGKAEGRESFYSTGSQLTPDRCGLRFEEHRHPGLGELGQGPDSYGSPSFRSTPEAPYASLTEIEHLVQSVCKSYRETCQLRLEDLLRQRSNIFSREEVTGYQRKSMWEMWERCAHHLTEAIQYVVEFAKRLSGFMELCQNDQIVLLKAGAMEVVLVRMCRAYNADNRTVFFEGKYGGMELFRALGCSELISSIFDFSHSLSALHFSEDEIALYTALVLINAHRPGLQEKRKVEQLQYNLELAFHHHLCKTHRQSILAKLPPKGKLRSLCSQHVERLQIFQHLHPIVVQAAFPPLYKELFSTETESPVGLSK
Assay: Inverse agonist activity at human RORc-LBD assessed as inhibition of SRC1 co-activator peptide recruitment by FRET assay
pEC50: −log10 of the molar value.
Would you please tag the item true (1) when its pEC50 is 7 or above, and false (0) when it is below?

> print(dat)
                                  structure  discrete.label
1  CC(=O)N1CCN(c2ccc(CN3[C@@H](C)CC[C@H](c4ccncc4)S3(=O)=O)c(F)c2)CC1       false (0)

Can "CC(=O)N1CCN(c2ccc(CN3C[C@@H](C)OC[C@H](c4ccccc4)S3(=O)=O)c(F)c2)CC1" be said to have pEC50 at or above 7?
true (1)

Can "COc1ccc([C@H]2CC[C@H](C)N(Cc3ccc(N4CCN(C(C)=O)CC4)cc3F)S2(=O)=O)cc1" be said to have pEC50 at or above 7?
true (1)

Can "COc1cccc([C@H]2CC[C@H](C)N(Cc3ccc(N4CCN(C(C)=O)CC4)cc3F)S2(=O)=O)c1" be said to have pEC50 at or above 7?
true (1)

Can "CC(=O)N1CCN(c2ccc(CN3[C@@H](C)CC[C@H](c4cccc(C#N)c4)S3(=O)=O)c(F)c2)CC1" be said to have pEC50 at or above 7?
false (0)

Can "CC(=O)N1CCN(c2ccc(CN3[C@@H](C)CC[C@H](c4ccsc4)S3(=O)=O)c(F)c2)CC1" be said to have pEC50 at or above 7?
true (1)

Can "CC(=O)N1CCN(c2ccc(CN3CCOC[C@H](c4ccccc4)S3(=O)=O)c(F)c2)CC1" be said to have pEC50 at or above 7?
true (1)

###

Measured EC50 by item
Target: Nuclear receptor ROR-beta (Homo sapiens, UniProt Q92753)
Sequence (Q92753 whole entry, the tested form may be a part): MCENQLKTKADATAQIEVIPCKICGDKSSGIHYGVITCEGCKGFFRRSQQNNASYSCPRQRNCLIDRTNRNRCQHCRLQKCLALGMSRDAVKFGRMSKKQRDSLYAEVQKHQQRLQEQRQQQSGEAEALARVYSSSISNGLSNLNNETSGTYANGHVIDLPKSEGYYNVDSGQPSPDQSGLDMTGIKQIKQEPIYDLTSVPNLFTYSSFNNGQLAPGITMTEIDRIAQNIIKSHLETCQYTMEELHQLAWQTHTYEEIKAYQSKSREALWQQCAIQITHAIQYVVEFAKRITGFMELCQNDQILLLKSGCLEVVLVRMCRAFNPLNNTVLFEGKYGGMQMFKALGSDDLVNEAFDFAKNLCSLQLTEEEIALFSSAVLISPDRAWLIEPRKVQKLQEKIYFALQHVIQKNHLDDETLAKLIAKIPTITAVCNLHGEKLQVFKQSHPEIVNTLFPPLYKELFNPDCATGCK
Experiment: Inverse agonist activity at GAL4-fused human RORb expressed in HEK293 cells assessed as […] of basal transcriptional activity by dual-glo luciferase reporter gene assay
Answer format: numeric, µM implied, no suffix.

> print(dat)
                                  structure  measurement.name  output.unit  reported
1  CC(=O)N1CCN(c2ccc(CN3[C@@H](C)CC[C@H](c4ccccc4)S3(=O)=O)c(F)c2)CC1              EC50           µM       5.4

Now for another entry.
Tell me its EC50 given "CC(=O)N1CCN(c2ccc(CN3CCCC[C@H](c4ccccc4)S3(=O)=O)c(F)c2)CC1" as the entry.
6.8

###

Biological target: Nuclear receptor ROR-gamma (Homo sapiens) (UniProt P51449)
Sequence (whole entry): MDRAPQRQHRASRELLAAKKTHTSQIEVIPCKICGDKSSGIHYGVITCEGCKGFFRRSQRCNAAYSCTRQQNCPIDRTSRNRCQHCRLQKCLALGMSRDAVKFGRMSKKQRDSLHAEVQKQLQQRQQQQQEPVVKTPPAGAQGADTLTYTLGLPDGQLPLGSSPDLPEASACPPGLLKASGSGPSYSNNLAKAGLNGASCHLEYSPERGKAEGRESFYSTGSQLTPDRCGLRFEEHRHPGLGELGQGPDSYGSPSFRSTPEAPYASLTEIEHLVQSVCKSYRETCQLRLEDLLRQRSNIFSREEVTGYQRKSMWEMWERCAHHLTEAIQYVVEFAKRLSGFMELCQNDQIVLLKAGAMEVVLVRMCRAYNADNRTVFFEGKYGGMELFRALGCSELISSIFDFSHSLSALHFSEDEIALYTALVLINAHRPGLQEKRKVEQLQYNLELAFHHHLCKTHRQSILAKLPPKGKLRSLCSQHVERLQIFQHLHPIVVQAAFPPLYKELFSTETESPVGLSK
Assay: Inverse agonist activity at human RORc-LBD assessed as inhibition of SRC1 co-activator peptide recruitment by FRET assay relative to apo-RORc basal activity
Measured Efficacy by item
Answer format: numeric, % implied, no suffix.

> print(dat)
                                  structure  measurement.name  reported
1  CC(=O)N1CCN(c2ccc(CN3[C@@H](C)CC[C@H](c4ccsc4)S3(=O)=O)c(F)c2)CC1          Efficacy        98
2  CC(=O)N1CCN(c2ccc(CN3[C@@H](C)CC[C@H](c4ccncc4)S3(=O)=O)c(F)c2)CC1          Efficacy        89
3  CC(=O)N1CCN(c2ccc(CN3[C@@H](C)CC[C@H](c4ncccn4)S3(=O)=O)c(F)c2)CC1          Efficacy        76

Tell me its Efficacy given "CC(=O)N1CCN(c2ccc(CN3C[C@H](C)OC[C@H](c4ccccc4)S3(=O)=O)c(F)c2)CC1" as the entry.
100

Tell me its Efficacy given "COc1ccccc1[C@H]1CC[C@H](C)N(Cc2ccc(N3CCN(C(C)=O)CC3)cc2F)S1(=O)=O" as the entry.
94

Tell me its Efficacy given "COc1cccc([C@H]2CC[C@H](C)N(Cc3ccc(N4CCN(C(C)=O)CC4)cc3F)S2(=O)=O)c1" as the entry.
97

Tell me its Efficacy given "CC(=O)N1CCN(c2ccc(CN3[C@@H](C)CC[C@H](c4ccccc4C#N)S3(=O)=O)c(F)c2)CC1" as the entry.
76

Tell me its Efficacy given "CC(=O)N1CCN(c2ccc(CN3[C@@H](C)CC[C@H](c4ccc(Cl)cc4)S3(=O)=O)c(F)c2)CC1" as the entry.
99

Tell me its Efficacy given "CC(=O)N1CCN(c2ccc(CN3[C@@H](C)CC[C@H](c4cccnc4)S3(=O)=O)c(F)c2)CC1" as the entry.
73

Tell me its Efficacy given "CC(=O)N1CCN(c2ccc(CN3[C@@H](C)CC[C@H](c4cccc(Cl)c4)S3(=O)=O)c(F)c2)CC1" as the entry.
99

Tell me its Efficacy given "CC(=O)N1CCN(c2ccc(CN3[C@@H](C)CC[C@H](c4cccs4)S3(=O)=O)c(F)c2)CC1" as the entry.
91

Tell me its Efficacy given "CC(=O)N1CCN(c2ccc(CN3[C@@H](C)CC[C@H](c4ccccn4)S3(=O)=O)c(F)c2)CC1" as the entry.
87

Tell me its Efficacy given "CC(=O)N1CCN(c2ccc(CN3[C@H](C)COC[C@H](c4ccccc4)S3(=O)=O)c(F)c2)CC1" as the entry.
98

###

Target: UniProt P51449
Assay: Inverse agonist activity at human RORc-LBD assessed as inhibition of SRC1 co-activator peptide recruitment by FRET assay relative to apo-RORc basal activity
MEASUREMENT NAME: Efficacy
State the result as a value with its unit after it.

> print(dat)
                                  structure     test.target  reported
1  CC(=O)N1CCN(c2ccc(CN3[C@@H](C)CC[C@H](c4cccc(C#N)c4)S3(=O)=O)c(F)c2)CC1  UniProt P51449       64%
2  CC(=O)N1CCN(c2ccc(CN3[C@@H](C)CC[C@H](c4ccc(C#N)cc4)S3(=O)=O)c(F)c2)CC1  UniProt P51449       62%
3  CC(=O)N1CCN(c2ccc(CN3CCOC[C@H](c4ccccc4)S3(=O)=O)c(F)c2)CC1  UniProt P51449       99%

Now for another entry.
Please report Efficacy with UniProt P51449 for item "CC(=O)N1CCN(c2ccc(CN3C[C@@H](C)OC[C@H](c4ccccc4)S3(=O)=O)c(F)c2)CC1" .
100%

###

Assay: Protein binding in rat plasma by equilibrium dialysis
Format: ADME, cell-free
Conditions: read-out: PPB (converted)
MEASUREMENT NAME: fraction unbound
# answer = number (no unit)

> print(dat)
                                  structure  reported
1  CC(=O)N1CCN(c2ccc(CN3C[C@H](C)OC[C@H](c4ccccc4)S3(=O)=O)c(F)c2)CC1      0.07

Now for another entry.
Tell me its fraction unbound given "CC(=O)N1CCN(c2ccc(CN3[C@@H](C)CC[C@H](c4ccccc4)S3(=O)=O)c(F)c2)CC1" as the entry.
0.05
